Hello, the source for this data is paper PMC3486884, in case you need it.

- testSummary: Liposome dextran-FITC de-quenching
- recordedConditions: read-out: FITC-fluorescence dequenching, half maximal efficacy; liposomes loaded at pH 5.15 with dextran-FITC
pEC50: −log10 of the molar value.

| molecule | pEC50 |
| --- | --- |
| O=C(Nc1ccc([N+](=O)[O-])cc1Cl)c1cc(Cl)ccc1O [niclosamide, reference compound] | 4.85 |

---

- Tested on: HRV1A
- testSummary: microbe, parasite or virus in culture
- recordedConditions: Human rhinovirus sp., M-HeLa, 7 h, read-out: HRV1A infection (dsRNA), 0.03 µM

| compound | activity at 0.03 µM (%) |
| --- | --- |
| O=C(Nc1ccc([N+](=O)[O-])cc1Cl)c1cc(Cl)cc(Cl)c1O | 93 |
| CCOc1ccccc1C(=O)Nc1ccc(Cl)cc1Cl | 119 |
| Nc1ccc(NC(=O)c2cc(Cl)ccc2O)c(Cl)c1 | 109 |
| O=C(Nc1ccc([N+](=O)[O-])cc1Cl)c1cc(Cl)ccc1OCCOc1ccccc1 | 112 |
| COC(=O)c1ccc(Cl)c(NC(=O)c2ccccc2OC)c1 | 91 |
| COc1ccc(Br)cc1C(=O)Nc1cc([N+](=O)[O-])ccc1Cl | 112 |
| COc1c(C)cccc1C(=O)Nc1ccc([N+](=O)[O-])cc1Cl | 104 |
| O=C(Nc1ccc([N+](=O)[O-])cc1Cl)c1ccccc1O | 108 |
| COc1ccccc1C(=O)Nc1ccc(C(F)(F)F)cc1Cl | 101 |
| CCC(=O)Nc1ccc(Cl)c(NC(=O)c2ccccc2OC)c1 | 118 |
| O=C(Nc1ccc([N+](=O)[O-])cc1Cl)c1cc(Cl)ccc1O [niclosamide, reference compound] | 98 |
| COc1ccc(Cl)cc1C(=O)Nc1cc([N+](=O)[O-])ccc1Cl | 101 |
| CS(=O)(=O)c1ccc(NC(=O)c2cc(Cl)ccc2O)c(Cl)c1 | 123 |
| COc1ccccc1C(=O)Nc1ccc([N+](=O)[O-])cc1Cl | 112 |
| CCOc1ccccc1C(=O)Nc1ccc([N+](=O)[O-])cc1Cl | 99 |
| O=C(Nc1ccc(NS(=O)(=O)c2ccccc2)cc1Cl)c1cc(Cl)ccc1O | 102 |
